Protocol details: Hygroscopicity test, condition 3 (dynamic vapor sorption, 0 to 90 to 0% RH)
Assay type: physicochemical
Measurement context: DVS, 25° C., RH 20%
Value type: Change In Mass (%)

CNCC(=O)O.CNCC(=O)O.O=C(O)C(O)C(O)C(=O)O [N-MG/L-TA = 2/1]	0.03

A: CNCC(=O)O.CNCC(=O)O.O=C(O)C(O)C(O)C(=O)O [N-MG/D-TA = 2/1]
B: CNCC(=O)O [N-MG, N-methylglycine, reference compound]
C: CNCC(=O)O.CNCC(=O)O.O=C(O)C(O)C(O)C(=O)O (racemic) [N-MG/DL-TA = 2/1]
Put the entries in order of Change In Mass (%), starting with the largest number. Please write the labels in the order that was asked for.
C, A, B
(C: 0.21%, A: 0.04%, B: 0.0%)
